Data credit: PubChem BioAssay (NCI)

TGI overview
- System: HOP-62 NSCLC
- method-summary: NCI tumour cell line growth inhibition, 48 h
Where a SMILES comes first, the peptide text is derived from it. [ ]: non-standard residue; d: D form. The star is where a group is joined. hSer = N[CH](CCO)C(=O)O; Boc = CC(C)(C)OC(=O)*
readout-kind: TGI

O=C(NCCNCCO)N/N=C/c1cccc([N+](=O)[O-])c1 : > 100 µM
COC(=O)Cc1c([C@@H]2Nc3ccccc3[C@H]2CC(=O)OC)[nH]c2ccccc12 : > 100 µM
C[N+]1(C)C2Cc3ccccc3C1Cc1ccccc12 : > 100 µM
CC(=O)N[C@@H](Cc1ccc(O)cn1)C(=O)NCc1cccc(F)c1 : > 100 µM
COC(=O)N1[C@H]2Cc3c(OC)c(C)c(OC)c(OC)c3[C@@H]1/C(=C\c1cc(OC)c(OC)c(C)c1OC)N(Cc1ccccc1)C2=O : > 100 µM
Cc1ccc(N=Nc2c(O)c3ccccc3[nH]c2=O)c(S(=O)(=O)N(C)C)c1 : > 100 µM
CC(=O)[CH-]C(=O)c1ccccc1.CC(=O)[CH-]C(=O)c1ccccc1.[Nd+3].[OH-].[OH3+] : > 100 µM
COC(=O)OC[C@H]1O[C@@H](n2cc(C)c(=O)[nH]c2=O)CC1OC(=O)OC (stereo partly drawn) : > 100 µM
O=C(NC1CCCCC1)c1c(O)[nH]c(=S)[nH]c1=O : > 100 µM
COC(=O)c1cnc2nc(N3CCOCC3)[nH]n2c1=O : > 100 µM
CN1CC(c2ccccc2)=Cc2c1ccc(N)c2N=N : > 100 µM
CCCC[C@@H]1NC(=O)[C@H](CCCCN)NC(=O)[C@H](CCCNC(=N)N)NC(=O)[C@H](CC(C)C)NC(=O)[C@@H](NC(=O)[C@H](Cc2cccc(Cl)c2)NC(=O)[C@@H]2CCCN2C(=O)[C@@H](NC(C)=O)C(C)C)CCSSC[C@@H](C(=O)N[C@@H](CCCCN)C(=O)N2CCC[C@H]2C(=O)N2CCC[C@H]2C(=O)N[C@@H](CCC(=O)O)C(N)=O)NC(=O)[C@H](Cc2ccccc2)NC(=O)[C@H](CO)NC(=O)[C@H](C)NC(=O)[C@@H]2CCCN2C1=O : > 50 µM
CC(C)C1CN1CC(O)Cn1ccnc1[N+](=O)[O-] (stereo not drawn) : > 100 µM
O=C(Cc1ccc(Cl)c(Cl)c1)NCCCN1CCN(CCCN2CCCCC2)CC1 : 32.1 µM
COc1cc2c(cc1OC)C13CCN4CC5=CCOC(CC(=O)O)C(C5CC41)C3N2 (stereo not drawn) : > 100 µM
O=[N+]([O-])c1ccccc1S(=O)c1ccccc1 (stereo not drawn) : > 100 µM
COc1cc(OC)c(-c2cc(=O)c3c(OC)c(OC)c(OC)c(OC)c3o2)cc1OC : > 100 µM
CC1(C)CCc2c(cc3c(c2O)CCC(C)(C)O3)O1 : > 100 µM
C/C(=N\Nc1nc2cc(C)ccc2s1)c1ccccn1 : 3.62 µM
O=c1c2cc([N+](=O)[O-])ccc2n2n1Cc1ccccc1CC2 : > 100 µM
N#CC(c1ccc(O)cc1)N1CCN(C(C#N)c2ccc(O)cc2)CC1 (stereo not drawn) : 57.1 µM
COc1ccc(C2SCC(=O)N2N=C2NC(=O)CC(=O)N2)cc1 (stereo not drawn) : > 100 µM
CC1=C/C(=C(\c2ccc(N(C)C)cc2)c2ccc([N+](C)(C)C)cc2)C=CC1=[N+](C)C : 71.5 µM
NC1=CN(CCCO)C2=N/C(=C\c3ccco3)C(=O)N12 : > 100 µM
CN(C(=O)c1ccc(F)cc1C(F)(F)F)C1CCN(c2nnc(-c3ccnn3C)c3ccccc23)CC1 : > 100 µM
CCc1nc2c(O)ccc(O)c2nc1C : 32.3 µM
COc1cc2c(-c3nc4cc(Cl)c(F)cc4s3)cc(=O)oc2c(C)c1OC : 3.16 µM
COCCC(NC(=O)C(CC(C)C)NC(=O)OC(C)(C)C)C(N)=O (stereo not drawn) (Boc-Leu-[hSer](Me)-NH2; configuration not given here) : > 100 µM

---

TGI overview
- Test system: U251 CNS
- method-summary: NCI tumour cell line growth inhibition, 48 h
readout-kind: TGI

CCCCCCCCCCCCNC(=O)NCC(OCC)OCC : > 10 µM
COc1c(C2(c3ccc(F)cc3)SCCCS2)c(=O)c1=O : > 100 µM
NC1=CN(CCCO)C2=N/C(=C\c3ccco3)C(=O)N12 : > 100 µM
On1c(-c2ccccc2)c(-c2c(-c3ccccc3)n(O)c3ccccc23)c2ccccc21 : > 100 µM
CC(=O)N[C@@H](Cc1ccc(O)cn1)C(=O)NCc1cccc(F)c1 : > 100 µM

---

TGI overview
- Tested on: XF 498 CNS
- method-summary: NCI tumour cell line growth inhibition, 48 h
readout-kind: TGI

N#C/C(=C\c1ccc(CP(=O)(O)O)cc1)C(N)=O : > 100 µM
OCC(O)COc1ccc(Br)cc1 (stereo unspecified) : > 100 µM
Cc1c(Cl)ccc2c1NC(=O)C2(O)CC(=O)c1ccc(Cl)cc1Cl (stereo unspecified) : > 50 µM
CS(=O)(=O)NNS(=O)(=O)c1ccc(Br)cc1 : > 100 µM
CS(=O)(=O)C1S(=O)(=O)OCCOS1(=O)=O : > 100 µM
CCCCOC1CC2(c3ccc(OC)cc3)C(=O)c3ccccc3N2O1 (stereo unspecified) : > 10 µM

---

TGI overview
- Test system: RXF 393 renal
- method-summary: NCI tumour cell line growth inhibition, 48 h
readout-kind: TGI

N#Cc1[nH]c(=O)n(-c2ccc([N+](=O)[O-])cc2)c1N : > 10 µM
CN(C(=O)c1ccc(F)cc1C(F)(F)F)C1CCN(c2nnc(-c3ccnn3C)c3ccccc23)CC1 : > 84.3 µM
CO/N=C(\c1ccccc1)c1cnn(-c2ccccc2)c1N : > 25 µM
CCOC(=O)C(NCc1ccccc1)(NC(=O)c1ccccc1)C(F)(F)F (centres undefined) : > 100 µM
CN(NC(=O)c1ccco1)C1=NCCCCN1 : > 100 µM
CCCC[C@@H]1NC(=O)[C@H](CCCCN)NC(=O)[C@H](CCCNC(=N)N)NC(=O)[C@H](CC(C)C)NC(=O)[C@@H](NC(=O)[C@H](Cc2cccc(Cl)c2)NC(=O)[C@@H]2CCCN2C(=O)[C@@H](NC(C)=O)C(C)C)CCSSC[C@@H](C(=O)N[C@@H](CCCCN)C(=O)N2CCC[C@H]2C(=O)N2CCC[C@H]2C(=O)N[C@@H](CCC(=O)O)C(N)=O)NC(=O)[C@H](Cc2ccccc2)NC(=O)[C@H](CO)NC(=O)[C@H](C)NC(=O)[C@@H]2CCCN2C1=O : > 50 µM
CC1C(c2ccc(N(C)C)cc2)c2cc3c(cc2OC1N1CCCC1)OCO3 (centres undefined) : > 100 µM
COc1ccc(C(=O)C2CC3(CCC2(O)c2ccc(OC)cc2)CC(=O)Nc2ccccc2C3=O)cc1 (centres undefined) : > 100 µM
CC(=O)[CH-]C(=O)c1ccccc1.CC(=O)[CH-]C(=O)c1ccccc1.[Nd+3].[OH-].[OH3+] : > 100 µM
COC(=O)[C@]1(C)CCCn2c(=O)n(-c3ccccc3)c(=O)n21 : > 100 µM
OCC(O)COc1ccc(Br)cc1 (centres undefined) : > 100 µM
O=C1CCC2(c3ccc(F)cc3)Nc3ccccc3N12 (centres undefined) : > 100 µM
Cc1c(/C=C2\CC/C(=C\c3[nH]c(C(=O)OC(C)(C)C)c(C)c3C)C2=O)[nH]c(C(=O)OC(C)(C)C)c1C : > 100 µM
CC(C)(C)C1CC[C@H]2c3c([nH]c4ccc(Br)cc34)[C@H]3C(=O)N(c4ccccc4)C(=O)[C@H]3[C@H]2C1 (some centres undefined) : > 100 µM
COc1ccc(CNc2cc(OC)cc(OC)c2)cc1 : > 100 µM
C/C(=N\Nc1nc2cc(C)ccc2s1)c1ccccn1 : > 22.9 µM
CSc1nc2c(c(N(C)C)n1)C=Nn1c(nc3ccccc31)S2 : > 100 µM
O=C(Cc1ccccc1)Oc1ccc2c(-c3ccccc3)c(C(=O)Nc3ccc(Cl)cc3)c(=O)oc2c1 : > 100 µM
COC(=O)/C(=C/c1ccc(OC)cc1)C(C(=O)O)=C(C)C : > 100 µM

---

- System: CAKI-1 renal
- method-summary: NCI tumour cell line growth inhibition, 48 h
readout-kind: TGI

COc1ccc(-c2cc(C(=O)Nc3cccc(C(F)(F)F)c3)[nH]c(=S)n2)cc1 : > 100 µM
CC(=O)N[C@@H](Cc1ccc(O)cn1)C(=O)NCc1cccc(F)c1 : > 100 µM
O=C(/C=C/c1ccc(OCCCCCCCCCCOc2ccc(/C=C/C(=O)c3ccc(Cl)cc3)cc2)cc1)c1ccc(Cl)cc1 : > 100 µM
O=S(=O)(O)c1cc(Cl)c(O)c2ncc(Cl)cc12 : > 100 µM
CCN(CC)c1ccc(NC(C(=O)c2ccccc2)c2ccccc2)cc1 (stereo not drawn) : 11.6 µM
OCC(O)CC[CH2][Sn]([c]1ccccc1)([c]1ccccc1)[c]1ccccc1 (stereo not drawn) : 21.5 µM
c1ccc2c(c1)O[As](O[As]1Oc3ccccc3O1)O2 : 8.54 µM
CCOC(=O)c1ccc(NC2Oc3cc4c(cc3C(c3cc(OC)c(OC)c(OC)c3)C2C)OCO4)cc1 (stereo not drawn) : 0.786 µM
O=CC1=CCCC2(C1)OCCO2 : > 100 µM
O=C(Cc1ccccc1)Oc1ccc2c(-c3ccccc3)c(C(=O)Nc3ccc(Cl)cc3)c(=O)oc2c1 : > 100 µM
CC(=O)[CH-]C(=O)c1ccccc1.CC(=O)[CH-]C(=O)c1ccccc1.[Nd+3].[OH-].[OH3+] : > 100 µM
COc1ccc(C2SCC(=O)N2N=C2NC(=O)CC(=O)N2)cc1 (stereo not drawn) : > 100 µM
O=[N+]([O-])c1ccccc1S(=O)c1ccccc1 (stereo not drawn) : > 100 µM
CN(C)c1c(Cl)c(=O)oc2c1ccc1nc(-c3ccccc3)sc12 : > 100 µM
C=CC1CC12C(=O)C1OC2(C)C2C(=O)c3ccccc3C(=O)C12 (stereo not drawn) : 58.6 µM
Cc1cc(-c2ccc(C(=O)C(Cl)(Cl)Cl)[nH]2)on1 : 36.7 µM
O=C1c2ccn(CCCCN3CCOCC3)c2C(=O)c2c1c(O)c1ccccc1c2O : 21 µM
CCOC(C)OCC#CCCBr (stereo not drawn) : > 100 µM
O=C1OCC(c2ccc(O)c(O)c2)=C1c1cc(O)c(O)c(O)c1 : 27.9 µM
C=CCN1C(=O)CS/C1=N\NC(=O)c1c(C)nc2sccn12 : > 100 µM
Cc1ncc([N+](=O)[O-])n1CCN(C)CCCCn1ccnc1[N+](=O)[O-] : > 100 µM
CO/N=C(\c1ccccc1)c1cnn(-c2ccccc2)c1N : > 25 µM
Oc1ccc(-c2cc(-c3c(O)cc(O)cc3O)on2)cc1 : > 100 µM
